MEASUREMENT TARGET: Cytochrome P450 2C9 (Homo sapiens, UniProt P11712)
Sequence (P11712 whole entry): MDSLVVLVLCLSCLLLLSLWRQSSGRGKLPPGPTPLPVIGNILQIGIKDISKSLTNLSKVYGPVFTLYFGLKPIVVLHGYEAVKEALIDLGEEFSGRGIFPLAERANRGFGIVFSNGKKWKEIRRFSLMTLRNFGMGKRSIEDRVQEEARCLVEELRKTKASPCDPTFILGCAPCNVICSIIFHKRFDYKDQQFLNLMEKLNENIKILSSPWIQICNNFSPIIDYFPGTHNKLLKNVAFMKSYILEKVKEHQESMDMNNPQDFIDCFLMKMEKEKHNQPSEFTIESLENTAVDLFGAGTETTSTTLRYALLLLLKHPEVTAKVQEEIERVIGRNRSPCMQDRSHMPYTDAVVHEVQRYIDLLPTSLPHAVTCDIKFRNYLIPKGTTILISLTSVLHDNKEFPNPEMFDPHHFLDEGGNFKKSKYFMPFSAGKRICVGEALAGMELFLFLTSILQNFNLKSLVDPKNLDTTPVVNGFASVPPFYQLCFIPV
EXPERIMENTAL PROTOCOL: Inhibition of human recombinant CYP2C9
Measured IC50 of individual entries
Report the figure in nM without appending any unit label.

Cc1c2ccc(N(C)c3ccnc(Nc4cccc(S(N)(=O)=O)c4)n3)cc2nn1C    1400
Cc1nc2cc(N(C)c3ccnc(Nc4cccc(S(N)(=O)=O)c4)n3)ccc2n1C    9000
Cc1nn(C)c2cc(N(C)c3ccnc(Nc4cccc(S(N)(=O)=O)c4)n3)ccc12 [GW770220A]    1000
CN(c1ccc2cn(C)nc2c1)c1ccnc(Nc2cccc(S(N)(=O)=O)c2)n1    2900
Cc1n[nH]c2cc(N(C)c3ccnc(Nc4cccc(S(N)(=O)=O)c4)n3)ccc12    700

Return IC50 measured with Cytochrome P450 2C9 (Homo sapiens, UniProt P11712) given this compound: `Cc1nc2ccc(N(C)c3ccnc(Nc4cccc(S(N)(=O)=O)c4)n3)cc2n1C`
15000

Same read-out for `Cc1c2ccc(N(C)c3ccnc(Nc4cccc(S(N)(=O)=O)c4)n3)cc2nn1Cc1ccccc1` ?
500
